TEST: Cytotoxicity against mouse RAW264.7 cells at 100 uM after 72 hrs by MTT assay
Assay type: cell-based
REPORTED CONDITIONS: read-out: INH
Each entry gets false (0) if its cytotoxicity at 72 h, 100 µM stays under 40%, and true (1) if its cytotoxicity at 72 h, 100 µM is 40% or above.

Use the examples below as a reference point.
[[record]]
smiles_representation = "O=C(Cn1cnc2ccccc2c1=O)Nc1ccccc1"
class_label = "false (0)"

[[record]]
smiles_representation = "O=C(Cn1cnc2ccc(Cl)cc2c1=O)Nc1cc(C(F)(F)F)ccc1Cl"
class_label = "true (1)"


Now for another entry.
Query: State whether the measured cytotoxicity at 72 h, 100 µM reaches 40%, counting equality as reaching it, for "Cc1nc2ccc(Cl)cc2c(=O)n1CC(=O)Nc1ccccc1"
Result: false (0)

Where do the numbers come from? From ChEMBL document CHEMBL3352048.
